tested on: 786-0; assay: NCI tumour cell line growth inhibition, 48 h
Calls of active or inactive are those of the source. Cut-off read from the data, not from the text of the source: active = GI50 up to about 1.1 µM and inactive = higher.

COMPOUND: O=C1C=C(O)c2nc(O)ccc2C1=O
GI50: > 100 µM (inactive)
--
COMPOUND: O=C(NN=C1NCCCN1)c1ccco1
GI50: > 100 µM (inactive)
--
COMPOUND: O=C(/C=C/c1ccccc1)c1ccc(NCc2nc3ccccc3[nH]2)cc1
GI50: 3.81 µM (inactive)
--
COMPOUND: CC(=O)/N=C1\NC(=O)/C(=C/c2ccccc2Cl)N1C
GI50: > 100 µM (inactive)
--
COMPOUND: CC(=O)NNc1nc(C)c(C(=O)/C=C/C=C/c2ccccc2)s1
GI50: 62.7 µM (inactive)
--
COMPOUND: COc1ccc2cc1Oc1ccc(cc1)CC1c3cc4c(cc3CCN1C)Oc1c(OC)cc3c(c1O4)C(C2)N(C)CC3 (stereo unspecified)
GI50: 7.66 µM (inactive)
--
COMPOUND: C#CCn1c(=O)c2cc(OC)c(OC)cc2n(CC#C)c1=O
GI50: > 10 µM (inactive)
--
COMPOUND: COc1ccc2c(c1)c1c(n2CCN2CCCCC2)-c2ccccc2CC1
GI50: 18.6 µM (inactive)
--
COMPOUND: CC(=O)NNc1ncc(C(=O)/C=C/c2ccccc2C)s1
GI50: > 100 µM (inactive)
--
COMPOUND: CCN(CC)CCNc1ccc2ncn3c4c(OC)ccc(O)c4c(=O)c1c23
GI50: 8.93 µM (inactive)
--
COMPOUND: O=C1C=C(c2ccccc2)O/C1=C/C(=O)c1ccc(Cl)cc1
GI50: 15.9 µM (inactive)

---

system: T47D; assay: NCI tumour cell line growth inhibition, 48 h
The source made the active and inactive calls. Rule as the data show it: active = GI50 up to about 1.1 µM and inactive = higher.
Reported GI50 by item:
PARAMETER: GI50

COMPOUND: O=C(/C=C/c1ccsc1)c1ccc(Cl)cc1
ASSAYED SYSTEM: T47D
RESULT: 74.8 µM (inactive)
--
COMPOUND: COc1ccccc1OCC(=N/NC(=O)c1ccncc1)/N=C/c1ccncc1
ASSAYED SYSTEM: T47D
RESULT: > 100 µM (inactive)
--
COMPOUND: COc1ccc(/C=C2/CSC/C(=C/c3ccc(OC)c(OC)c3)C2=O)cc1OC
ASSAYED SYSTEM: T47D
RESULT: 2.21 µM (inactive)
--
COMPOUND: Cc1cc(NCC2CC/C(=C\C=C\c3ccccc3)C2=O)no1 (stereo not given)
ASSAYED SYSTEM: T47D
RESULT: > 100 µM (inactive)
--
COMPOUND: COc1cc(C2c3cc4c(cc3[C@@H](Nc3ccc(F)cc3)C3CO[C@@H](O)[C@H]23)OCO4)cc(OC)c1O (stereo not given in full)
ASSAYED SYSTEM: T47D
RESULT: 3.72 µM (inactive)

---

test system: DMS-114; experiment: NCI tumour cell line growth inhibition, 48 h
Active and inactive are the calls of the source. No stated cut-off is given here; in the data, active = GI50 up to about 1.1 µM and inactive = higher.
Reported GI50 by item:
PARAMETER: GI50

COMPOUND: Cc1cc(C)[n+]2c(c1)C=CC2.[O-][Cl+3]([O-])([O-])[O-]
ASSAYED SYSTEM: DMS-114
RESULT: 5.5 µM (inactive)

COMPOUND: CC1[C@@]2(O[C@@H]3C=C4C5CCC6Cc7nc8c(nc7C[C@@]6(C)C5C[C@H](O)[C@@]4(C)[C@]13O)CC1CCc3c(cc4c5c3C(O)C[C@H]5[C@@H](C)C3(O4)OC(C)(C)CC3O)[C@]1(C)C8)O[C@@](C)(CO)C[C@@H]2O (stereo not given in full)
ASSAYED SYSTEM: DMS-114
RESULT: 0.119 µM (active)

COMPOUND: BrC(/C=N/Nc1nnc(-c2ccccc2)c(-c2ccccc2)n1)C(Br)c1ccccc1 (stereo not given)
ASSAYED SYSTEM: DMS-114
RESULT: 23.7 µM (inactive)

COMPOUND: Cc1cc(O)nc(NN2C(Cl)C(=O)C2c2ccco2)n1 (stereo not given)
ASSAYED SYSTEM: DMS-114
RESULT: 34.4 µM (inactive)

COMPOUND: CC(=O)O[C@H]1CC2C=CC3C(CCC31)O2 (stereo not given in full)
ASSAYED SYSTEM: DMS-114
RESULT: > 100 µM (inactive)

COMPOUND: CC(=O)Oc1ccc(O)c2c1CCCC2
ASSAYED SYSTEM: DMS-114
RESULT: 30.2 µM (inactive)

COMPOUND: CCC1CCC2CCCC(C)N12 (stereo not given)
ASSAYED SYSTEM: DMS-114
RESULT: > 100 µM (inactive)

COMPOUND: O=c1[nH]c(=O)n(C2CC(O)C(CO)O2)cc1C#Cc1cc(F)cc(F)c1 (stereo not given)
ASSAYED SYSTEM: DMS-114
RESULT: > 100 µM (inactive)

COMPOUND: C#C[C@@]1(O)CCCC2=CC(=O)C[C@]21C
ASSAYED SYSTEM: DMS-114
RESULT: > 100 µM (inactive)

COMPOUND: N#CC(/C(=N/NC(N)=S)C(=O)Nc1cccc(Cl)c1)c1ccccc1 (stereo not given)
ASSAYED SYSTEM: DMS-114
RESULT: > 100 µM (inactive)

---

test system: SK-MEL-2; test: NCI tumour cell line growth inhibition, 48 h
The source made the active and inactive calls. Rule as the data show it: active = GI50 up to about 1.1 µM and inactive = higher. Numbered stars: 1 amine (or outer) side, 2 acyl side, 3 side chain; on linkers, the order of the positions; unused ones are H or OH. Bridge positions count the residues as written; N and C are the ends. Square brackets hold non-standard residues; d marks the D form. Peptide text beside a SMILES is read from it. I, II: the chains in the order shown. Actinocin(9to1) = Cc1c2oc3c(C)ccc(C(=O)[*:1])c3nc-2c(C(=O)[*:2])c(N)c1=O; X48 = O=C1CC(C(=O)[*:2])N([*:1])C1; NMeV = CN[CH](C(=O)O)C(C)C; Sar = CNCC(=O)O
Outcomes: Y = active, N = inactive

COMPOUND: COc1ccc([C@H]2[C@H](C)C3=Nc4ccccc4CN32)cc1
CLASS NAME: N

COMPOUND: CCOC(=O)C1(C(C)=O)OC(=O)c2cnccc21 (stereo unspecified)
CLASS NAME: N

COMPOUND: C=C1C(=O)C=C2C=C3C(=O)C(C)(C)C[C@]3(O)C12C (stereo partly specified)
CLASS NAME: N

COMPOUND: CCOC(=O)C1=C(C)N(c2ccc(Cl)cc2)C2(O)C=CC(Nc3ccc(Cl)cc3)=C3C(=O)N(c4ccccc4)C(=O)C312 (stereo unspecified)
CLASS NAME: N

COMPOUND: O=C(O)c1ccccc1[Se][Se]c1ccccc1C(=O)O
CLASS NAME: N

COMPOUND: Cc1c2oc3c(C)ccc(C(=O)NC4C(=O)NC(C(C)C)C(=O)N5CC(=O)CC5C(=O)N(C)CC(=O)N(C)C(C(C)C)C(=O)OC4C)c3nc-2c(C(=O)NC2C(=O)NC(C(C)C)C(=O)N3CC(=O)CC3C(=O)N(C)CC(=O)N(C)C(C(C)C)C(=O)OC2C)c(N)c1=O (stereo unspecified) (I: TV[X48][Sar][NMeV] / II: TV[X48][Sar][NMeV]; ester I:1-I:C, II:1-II:C; linker I:N-II:N via Actinocin(9to1); configuration not given here)
CLASS NAME: Y

---

test system: SW-620; experiment: NCI tumour cell line growth inhibition, 48 h
Calls of active or inactive are those of the source. Rule as the data show it: active = GI50 up to about 1.1 µM and inactive = higher.
Outcomes: 1 (yes) for active, 0 (no) for inactive

COMPOUND: C=CC(OC(=O)C(C)C)c1ccc(OC(=O)C(C)C)cc1 (configuration not stated)
CLASS NAME: 0 (no)
//
COMPOUND: SC1=Nc2ccccc2-c2nc(-c3cccc(Cl)c3)cc(-c3ccccc3)c2C1
CLASS NAME: 0 (no)
//
COMPOUND: CC(C)CS(=O)(=O)/C(=C(\c1ccc(Br)cc1)S(=O)(=O)CC(C)C)c1ccc(Br)cc1
CLASS NAME: 0 (no)
//
COMPOUND: COc1ccc2cc1Oc1ccc(cc1)CC1c3cc4c(cc3CCN1C)Oc1c(OC)cc3c(c1O4)C(C2)N(C)CC3 (configuration not stated)
CLASS NAME: 0 (no)
//
COMPOUND: COc1cccc(N2C(=O)C3CC(CC(C)(C)C)c4c([nH]c5ccccc45)C3C2=O)c1 (configuration not stated)
CLASS NAME: 0 (no)
//
COMPOUND: CC1=NC2(CCCCC2)N(Cl)C(=O)C1SC#N (configuration not stated)
CLASS NAME: 0 (no)
//
COMPOUND: CC(=O)NNc1ncc(C(=O)/C=C/c2ccccc2C)s1
CLASS NAME: 0 (no)
//
COMPOUND: CN1C/C(=C\c2cccs2)C(=O)/C(=C/c2cccs2)C1
CLASS NAME: 0 (no)
//
COMPOUND: O=C(/C=C/c1ccsc1)c1ccc(Cl)cc1
CLASS NAME: 0 (no)
//
COMPOUND: Cc1cc(C)c(-n2c(-c3ccc(Br)cc3)cs/c2=N\N=C2C=C(C(C)(C)C)C(=O)C(C(C)(C)C)=C2)c(C)c1
CLASS NAME: 0 (no)
//
COMPOUND: O=C1C(F)=CC(COC(c2ccccc2)(c2ccccc2)c2ccccc2)OC1n1cc(F)c(=O)[nH]c1=O (configuration not stated)
CLASS NAME: 1 (yes)
//
COMPOUND: COc1cc(OC)cc(-c2nc3cc(F)ccc3s2)c1
CLASS NAME: 0 (no)
//
COMPOUND: CC(C)(C)C(=O)OCC1CCC[N+]2(C)CCCCC12 (configuration not stated)
CLASS NAME: 0 (no)
//
COMPOUND: C1CN2CCO[SiH](O1)OCC2
CLASS NAME: 0 (no)
//
COMPOUND: Cc1ccc(C(=O)/C=C/N2CCN(c3cccc(C(F)(F)F)c3)CC2)cc1
CLASS NAME: 0 (no)
//
COMPOUND: CC(=O)OCCOCNC(=S)N/N=C(\C)c1ccco1
CLASS NAME: 0 (no)
//
COMPOUND: COc1cc(/C=C(\NC(=O)c2ccccc2)c2nc3c(O)nc(S)nc3[nH]2)cc(OC)c1OC
CLASS NAME: 0 (no)
//
COMPOUND: CCO/C(Cc1ccc(Cl)cc1)=N/NC(N)=S
CLASS NAME: 0 (no)
//
COMPOUND: Cc1ccc(C)c(NC(=O)CC/C(=N\NC(=O)C(=O)NN)C(C)C(=O)c2ccc(O)cc2)c1 (configuration not stated)
CLASS NAME: 0 (no)
//
COMPOUND: COc1ccc2[nH]c3c(c2c1)[C@H](C)C[C@@H]1C(=O)N(c2ccccc2)C(=O)[C@H]31
CLASS NAME: 0 (no)
//
COMPOUND: CN(C)/N=C(/CC(O)(C(F)(F)F)C(F)(F)F)c1ccc([N+](=O)[O-])cc1
CLASS NAME: 0 (no)
//
COMPOUND: C/C(=N\Nc1nc2ccccc2o1)c1ccncn1
CLASS NAME: 1 (yes)
